Sourced from ChEMBL document CHEMBL3868624

- experiment-notes: Cytotoxicity against human SH-SY5Y cells assessed as cell viability at 25 uM after 48 hrs by MTT assay relative to control
- Type: toxicity, cell-based
- applied-conditions: read-out: Activity
endpoint-name: viability at 48 h, 25 µM (%)
Write down the numeric answer in % and omit the unit.

Some solved entries appear below for comparison.
CCN(C)C(=O)Oc1cccc([C@H](C)N(C)C)c1    86.6
CCN(C)C(=O)Oc1cccc(/C=C/C(=O)c2cccc(O)c2)c1    53
CCN(C)C(=O)Oc1ccccc1C(=O)/C=C/c1ccc(O)cc1    64.7
CCN(C)C(=O)Oc1cccc(C(=O)/C=C/c2ccc(OC)cc2)c1    85.1
CCN(C)C(=O)Oc1ccc(/C=C/C(=O)c2ccc(O)cc2)cc1    51.5

Answer with the recorded viability at 48 h, 25 µM for the molecule listed here: CN(C)C(=O)Oc1cccc(/C=C/C(=O)c2cccc(O)c2)c1
57.1

Answer with the recorded viability at 48 h, 25 µM for the molecule listed here: CN(C)C(=O)Oc1cccc(/C=C/C(=O)c2ccc(O)cc2)c1
46.2
